property: melting point (°C)

O=C1CCc2cc(C(=O)NC[C@H]3CC[C@@H](Cc4ccccc4)CC3)ccc2N1 [Example 118]
188.5
O=C(NC[C@H]1CC[C@@H](CCOc2ccccc2)CC1)c1cc[nH]c1 [Example 96]
121
O=C(NC[C@H]1CC[C@@H](CCOc2ccccc2)CC1)c1cn[nH]c1 [Example 77]
155.7
O=C(NC[C@]1(O)CC[C@H](COc2ccccc2)CC1)c1ccc(O)c(F)c1 [Example 62]
183.5
O=C(NC[C@]1(O)CC[C@H](COc2cccc(F)c2)CC1)c1ccc(O)cc1 [Example 10]
186
O=C(NC[C@H]1CC[C@@H](COc2ccccc2)CC1)c1ccc(O)nc1 [Example 82]
189.8
O=C(NC[C@]1(O)CC[C@H](CCOc2ccc(F)cc2)CC1)c1ccc(O)cc1 [Example 29]
177.5
O=C(NC[C@]1(O)CC[C@H](COCc2ccc(Cl)cc2)CC1)c1ccc(O)cc1 [Example 25]
164.1

----------
biological target: NR2B receptor (Rattus norvegicus, UniProt P35439+Q00960); construct: Membranes were prepared by homogenization of forebrain of male CD rats; assay: NR2B Binding Assay; conditions: forebrain P2 membranes of male CD rats; 5 nM [3H] NR2B ligand
Sequence (Q00960 27-1482, other chains not shown): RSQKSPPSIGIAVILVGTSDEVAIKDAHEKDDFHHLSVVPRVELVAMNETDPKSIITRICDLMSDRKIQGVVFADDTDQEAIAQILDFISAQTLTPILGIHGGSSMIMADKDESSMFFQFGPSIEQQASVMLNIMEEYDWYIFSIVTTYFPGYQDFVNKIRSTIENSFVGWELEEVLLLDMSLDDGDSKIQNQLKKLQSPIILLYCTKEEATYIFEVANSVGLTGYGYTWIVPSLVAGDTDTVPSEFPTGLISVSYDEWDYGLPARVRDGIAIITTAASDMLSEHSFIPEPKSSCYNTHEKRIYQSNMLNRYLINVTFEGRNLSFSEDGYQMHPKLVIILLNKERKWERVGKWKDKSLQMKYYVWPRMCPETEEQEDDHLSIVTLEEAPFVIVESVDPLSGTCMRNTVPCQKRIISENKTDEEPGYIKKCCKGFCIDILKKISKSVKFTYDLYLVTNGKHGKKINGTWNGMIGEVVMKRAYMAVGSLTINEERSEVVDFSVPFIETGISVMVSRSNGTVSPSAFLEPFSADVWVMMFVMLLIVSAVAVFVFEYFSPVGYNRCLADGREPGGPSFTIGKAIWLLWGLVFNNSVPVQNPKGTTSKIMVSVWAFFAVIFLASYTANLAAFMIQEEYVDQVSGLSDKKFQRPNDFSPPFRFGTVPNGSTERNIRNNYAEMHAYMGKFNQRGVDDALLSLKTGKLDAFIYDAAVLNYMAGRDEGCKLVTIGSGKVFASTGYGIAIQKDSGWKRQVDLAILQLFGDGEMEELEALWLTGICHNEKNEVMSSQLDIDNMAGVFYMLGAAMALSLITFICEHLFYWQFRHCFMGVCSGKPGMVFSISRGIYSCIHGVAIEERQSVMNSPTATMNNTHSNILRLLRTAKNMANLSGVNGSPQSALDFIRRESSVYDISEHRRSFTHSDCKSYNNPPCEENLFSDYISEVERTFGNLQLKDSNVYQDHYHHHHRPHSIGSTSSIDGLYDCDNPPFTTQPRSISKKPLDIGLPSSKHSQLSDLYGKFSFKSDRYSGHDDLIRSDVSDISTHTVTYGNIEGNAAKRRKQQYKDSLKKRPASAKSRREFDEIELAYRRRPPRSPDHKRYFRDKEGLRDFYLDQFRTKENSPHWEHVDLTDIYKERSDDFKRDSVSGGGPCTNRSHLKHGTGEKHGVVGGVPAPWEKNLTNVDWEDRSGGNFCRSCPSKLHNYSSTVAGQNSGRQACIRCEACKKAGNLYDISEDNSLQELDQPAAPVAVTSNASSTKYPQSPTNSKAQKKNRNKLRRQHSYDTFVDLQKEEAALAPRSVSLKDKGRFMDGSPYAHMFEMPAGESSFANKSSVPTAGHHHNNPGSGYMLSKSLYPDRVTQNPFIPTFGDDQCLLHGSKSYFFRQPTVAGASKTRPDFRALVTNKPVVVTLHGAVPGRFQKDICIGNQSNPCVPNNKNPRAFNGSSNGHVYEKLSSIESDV
pIC50: −log10 of the molar value.
property: pIC50

Some compounds with known pIC50 results, for comparison:
O=C(NC[C@@H]1CCC[C@H](OCCc2ccccc2)C1)c1cn[nH]c1 (single isomer, unassigned)
7.59
O=C(NC[C@]1(O)CC[C@H](COc2ccc(Cl)cc2)CC1)c1ccc(O)cc1
7.70
O=C(NC[C@]1(O)CC[C@H](COc2cccc(F)c2)CC1)c1ccc(O)cc1
7.92
O=C(NC[C@H]1CC[C@@H](OCCOc2ccc(F)cc2)CC1)c1cn[nH]c1
8.28
O=C(NC[C@H]1CC[C@@H](COCc2ccccc2)CO1)c1ccc(O)cc1
8.09

(P) O=C(NC[C@H]1CC[C@@H](OCCOc2ccccc2)CC1)c1ccc(O)cc1
(Q) O=C(NC[C@]1(O)CC[C@H](Cc2ccc(F)cc2)CC1)c1ccc(O)c(F)c1
(R) O=C(NC[C@H]1CC[C@@H](COc2ccc(Cl)cc2)CO1)c1cc(F)c(O)c(F)c1
(Q) Thanks in advance: please rank these 3 entries by pIC50, highest to lowest. Thanks in advance for listing the labels in the requested order.
(A) P, Q, R

----------
biological target: Human HERG (Homo sapiens); test: Human Dofetilide Binding Assay
Sequence (Q12809 whole entry): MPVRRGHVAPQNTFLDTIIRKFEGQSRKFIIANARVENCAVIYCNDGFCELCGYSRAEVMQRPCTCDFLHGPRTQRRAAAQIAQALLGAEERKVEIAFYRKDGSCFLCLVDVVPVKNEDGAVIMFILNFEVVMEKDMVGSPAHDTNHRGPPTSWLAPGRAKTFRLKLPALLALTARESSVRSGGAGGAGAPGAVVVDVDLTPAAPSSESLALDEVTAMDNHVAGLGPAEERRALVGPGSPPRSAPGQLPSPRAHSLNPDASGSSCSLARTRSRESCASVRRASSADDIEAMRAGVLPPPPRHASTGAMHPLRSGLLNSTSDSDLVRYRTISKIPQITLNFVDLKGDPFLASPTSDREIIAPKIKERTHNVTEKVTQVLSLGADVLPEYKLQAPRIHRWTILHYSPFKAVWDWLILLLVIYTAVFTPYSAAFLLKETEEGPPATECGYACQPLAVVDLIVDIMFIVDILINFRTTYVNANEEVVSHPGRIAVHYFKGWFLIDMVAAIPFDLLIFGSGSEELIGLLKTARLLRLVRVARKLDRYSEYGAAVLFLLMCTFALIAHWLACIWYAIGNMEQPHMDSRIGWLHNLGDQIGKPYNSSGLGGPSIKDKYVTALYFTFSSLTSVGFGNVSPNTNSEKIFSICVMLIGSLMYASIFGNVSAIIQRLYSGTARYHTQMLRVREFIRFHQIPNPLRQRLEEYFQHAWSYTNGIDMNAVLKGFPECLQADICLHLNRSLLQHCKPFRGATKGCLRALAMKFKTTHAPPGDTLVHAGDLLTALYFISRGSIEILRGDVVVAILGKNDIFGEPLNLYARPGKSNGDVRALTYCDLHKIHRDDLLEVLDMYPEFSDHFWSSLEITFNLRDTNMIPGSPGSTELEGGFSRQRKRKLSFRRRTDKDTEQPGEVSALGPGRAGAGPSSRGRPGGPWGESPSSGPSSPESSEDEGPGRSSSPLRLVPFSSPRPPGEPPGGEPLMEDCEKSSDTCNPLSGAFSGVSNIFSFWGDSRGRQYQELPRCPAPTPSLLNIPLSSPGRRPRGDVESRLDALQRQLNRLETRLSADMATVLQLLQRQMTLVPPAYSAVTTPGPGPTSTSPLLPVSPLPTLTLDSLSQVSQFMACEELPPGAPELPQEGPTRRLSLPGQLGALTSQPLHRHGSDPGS
pIC50: −log10 of the molar value.
property: pIC50

Some compounds with known pIC50 results, for comparison:
O=C(NC[C@H]1CC[C@@H](CCOc2ccccc2)CC1)c1cc(F)c(O)c(F)c1 [Example 91]
< 4.52
Cc1cccc(OC[C@H]2CC[C@@](O)(CNC(=O)c3ccc(O)cc3)CC2)c1 [Example 18]
< 4.00
O=C(NC[C@H]1CC[C@@H](COc2ccccc2)CO1)c1ccc(O)cc1 [Example 35]
4.29
Nc1n[nH]cc1C(=O)NC[C@H]1CC[C@@H](COc2ccc(Cl)cc2)CO1 [Example 125]
< 4.52

Now look at this entry.
(Q) # lookup: pIC50 of O=C(NC[C@@H]1CCC[C@H](OCCc2ccccc2)C1)c1cn[nH]c1 (single isomer, unassigned) [Example 116]
(A) < 4.00

----------
property: melting point (°C)

O=C(NC[C@]1(O)CC[C@H](COc2ccc(F)cc2)CC1)c1ccc(O)cc1
176.4
Cc1ccc(OC[C@H]2CC[C@@](O)(CNC(=O)c3ccc(O)cc3)CC2)nc1
196.2
O=C(NC[C@]1(O)CC[C@H](COc2ccc(Cl)cc2)CC1)c1ccc(O)cc1
208.2
O=C(NC[C@]1(O)CC[C@H](COc2cccc(Cl)c2)CC1)c1ccc(O)cc1
164.9
